biological target: GST-MSP138 (P. falciparum FCB1 MSP1 38 kDa fragment as GST fusion protein, C-terminal truncated forms) (Plasmodium falciparum (FCB1 strain)) [GST: P08515]; assay: solution-binding assay, 32P-labeled peptide on GST fusion beads
Sequence (P08515 whole entry, the tested form may be a part): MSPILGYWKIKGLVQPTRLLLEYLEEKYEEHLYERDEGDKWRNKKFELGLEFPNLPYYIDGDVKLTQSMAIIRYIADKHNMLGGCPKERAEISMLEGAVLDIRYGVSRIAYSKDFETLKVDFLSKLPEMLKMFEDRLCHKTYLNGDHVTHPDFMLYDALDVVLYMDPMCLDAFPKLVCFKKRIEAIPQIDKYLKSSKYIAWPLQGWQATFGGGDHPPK
Measured metric: Kd (µM)
Your answer should be a plain number; it is taken to be in µM.

Exam item: For SVTHANALTVMGKASTPGAAAQIQEVKEQRI (peptide, not shown: small tags and cut ends, modifications not checked) [32P-labeled 5BC (recombinant human Band 3 amino acid 731-761, GST removed with thrombin)] , what is its reported Kd?
Marked response: 67
